- Target Or System: JAK2 kinase (Homo sapiens)
- Construct: purchased Carna 08-045
- Procedure Summary: IC50 evaluation assay on JAK2 kinase inhibition (Caliper)
- Type: biochemical
- Condition Label: adenosine triphosphate at Km; 1 hour at 28° C.; average of two tests; read-out: IC50 (nM) inhibiting JAK 2 kinase
Quick list: IC50 per entry.
Parameter: IC50

smiles_str=COc1ccncc1-c1c(C)sc2cnc(Nc3cnn(C)c3)nc12 observed_value="13 nM"
smiles_str=COc1cc(S(C)(=O)=O)ccc1-c1c(C)sc2cnc(Nc3cnn(C4CCNCC4)c3)nc12 observed_value="0.51 nM"
smiles_str=COc1ccccc1-c1c(C)sc2cnc(Nc3cnn(CCN4CCN(C)CC4)c3)nc12 observed_value="1.7 nM"
smiles_str=COc1ccc(-c2c(C)sc3cnc(Nc4cnn(C)c4)nc23)c(OC)c1 observed_value="1.2 nM"
smiles_str=COc1ccccc1-c1c(C)sc2cnc(Nc3cnn(C4CCN(C)CC4)c3)nc12 observed_value="0.6 nM"
smiles_str=Cc1sc2cnc(Nc3cnn(C)c3)nc2c1-c1ccccc1Cl observed_value="8.9 nM"
smiles_str=COc1cc(O[C@H]2CCOC2)ccc1-c1c(C)sc2cnc(Nc3cnn(C)c3)nc12 observed_value="1.8 nM"
smiles_str=COc1cc(OCC(=O)N2CCC2)ccc1-c1c(C)sc2cnc(Nc3cnn(C)c3)nc12 observed_value="0.37 nM"
smiles_str=COc1cc(OCCCS(C)(=O)=O)ccc1-c1c(C)sc2cnc(Nc3cnn(C)c3)nc12 observed_value="0.94 nM"

* * *

- Target Or System: FLT3 kinase (FLT3-WT) (Homo sapiens, UniProt P36888)
- Construct: purchased Carna 08-154
- Sequence (P36888 27-993): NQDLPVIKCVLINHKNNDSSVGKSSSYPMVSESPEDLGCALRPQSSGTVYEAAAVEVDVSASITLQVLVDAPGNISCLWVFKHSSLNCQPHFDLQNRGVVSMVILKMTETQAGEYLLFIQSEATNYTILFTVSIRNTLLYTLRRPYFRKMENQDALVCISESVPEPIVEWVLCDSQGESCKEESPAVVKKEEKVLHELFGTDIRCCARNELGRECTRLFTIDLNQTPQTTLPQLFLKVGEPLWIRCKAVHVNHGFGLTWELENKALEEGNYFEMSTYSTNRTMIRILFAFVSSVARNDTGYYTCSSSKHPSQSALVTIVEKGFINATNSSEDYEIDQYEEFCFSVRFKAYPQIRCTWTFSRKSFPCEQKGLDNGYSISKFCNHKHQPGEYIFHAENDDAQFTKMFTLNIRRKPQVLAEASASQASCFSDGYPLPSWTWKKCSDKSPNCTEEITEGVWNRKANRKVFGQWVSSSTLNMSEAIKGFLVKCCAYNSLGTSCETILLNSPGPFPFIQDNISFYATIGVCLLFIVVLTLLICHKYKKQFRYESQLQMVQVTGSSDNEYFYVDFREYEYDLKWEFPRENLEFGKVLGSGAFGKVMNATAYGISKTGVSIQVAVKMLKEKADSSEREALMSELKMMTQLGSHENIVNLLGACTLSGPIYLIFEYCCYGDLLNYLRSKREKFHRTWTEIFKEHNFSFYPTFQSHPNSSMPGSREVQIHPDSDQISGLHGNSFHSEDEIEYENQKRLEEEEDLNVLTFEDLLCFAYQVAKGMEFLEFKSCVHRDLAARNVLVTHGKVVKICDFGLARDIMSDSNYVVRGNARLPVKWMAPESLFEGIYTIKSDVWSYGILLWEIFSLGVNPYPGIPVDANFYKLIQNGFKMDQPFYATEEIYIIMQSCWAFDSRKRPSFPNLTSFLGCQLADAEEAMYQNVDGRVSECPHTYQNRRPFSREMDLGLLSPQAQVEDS
- Procedure Summary: IC50 evaluation assay of FLT3 kinase inhibition (Caliper)
- Format: biochemical
- Condition Label: 28° C.; average of two tests; read-out: IC50 (nM) inhibiting FLT3-WT kinase
Quick list: IC50 per entry.
Parameter: IC50 (nM)

smiles_str=COc1cc(F)ccc1-c1c(C)sc2cnc(Nc3cnn(C4CCN(CCO)CC4)c3)nc12 units_of_measure=nM comparison_sign=< observed_value=5
smiles_str=COc1cc(F)ccc1-c1c(C)sc2cnc(Nc3cnn(C4CCNCC4)c3)nc12 units_of_measure=nM comparison_sign== observed_value=0.28

* * *

Quick list: IC50 per entry.
- Target Or System: LCK kinase (Homo sapiens, UniProt P06239)
- Construct: purchased Carna 08-170
- Sequence (P06239 whole entry): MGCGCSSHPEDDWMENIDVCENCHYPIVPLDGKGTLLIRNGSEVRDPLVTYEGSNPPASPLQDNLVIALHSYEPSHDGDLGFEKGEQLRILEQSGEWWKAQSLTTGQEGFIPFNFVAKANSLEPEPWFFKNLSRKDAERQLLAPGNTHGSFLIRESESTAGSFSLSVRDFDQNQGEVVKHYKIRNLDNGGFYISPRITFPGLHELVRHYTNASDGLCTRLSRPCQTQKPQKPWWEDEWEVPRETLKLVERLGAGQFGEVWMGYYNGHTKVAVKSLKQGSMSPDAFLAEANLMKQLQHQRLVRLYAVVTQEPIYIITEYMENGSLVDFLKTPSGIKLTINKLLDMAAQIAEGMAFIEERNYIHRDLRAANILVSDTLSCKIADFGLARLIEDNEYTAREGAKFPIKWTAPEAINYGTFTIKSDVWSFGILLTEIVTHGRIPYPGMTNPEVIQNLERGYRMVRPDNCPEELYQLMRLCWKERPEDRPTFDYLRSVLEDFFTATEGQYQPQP
- Procedure Summary: IC50 evaluation assay of Src family kinase inhibition: LCK
- Assay type: biochemical
- Condition Label: 28° C.; average of two tests; read-out: IC50 (nM) inhibiting Src family kinase LCK
Parameter: IC50 (nM)

molecule="COc1cc(F)ccc1-c1c(C)sc2cnc(Nc3cnn(C4CCN(CCO)CC4)c3)nc12 [Compound 34]" parameter=IC50 units_of_measure=nM comparison_sign=< observed_value=5
molecule="COc1cc(F)ccc1-c1c(C)sc2cnc(Nc3cnn(C4CCNCC4)c3)nc12 [Compound 31]" parameter=IC50 units_of_measure=nM comparison_sign== observed_value=5.5

* * *

- Target Or System: JAK2 kinase (Homo sapiens, UniProt O60674)
- Construct: purchased Carna 08-045
- Sequence (O60674 whole entry): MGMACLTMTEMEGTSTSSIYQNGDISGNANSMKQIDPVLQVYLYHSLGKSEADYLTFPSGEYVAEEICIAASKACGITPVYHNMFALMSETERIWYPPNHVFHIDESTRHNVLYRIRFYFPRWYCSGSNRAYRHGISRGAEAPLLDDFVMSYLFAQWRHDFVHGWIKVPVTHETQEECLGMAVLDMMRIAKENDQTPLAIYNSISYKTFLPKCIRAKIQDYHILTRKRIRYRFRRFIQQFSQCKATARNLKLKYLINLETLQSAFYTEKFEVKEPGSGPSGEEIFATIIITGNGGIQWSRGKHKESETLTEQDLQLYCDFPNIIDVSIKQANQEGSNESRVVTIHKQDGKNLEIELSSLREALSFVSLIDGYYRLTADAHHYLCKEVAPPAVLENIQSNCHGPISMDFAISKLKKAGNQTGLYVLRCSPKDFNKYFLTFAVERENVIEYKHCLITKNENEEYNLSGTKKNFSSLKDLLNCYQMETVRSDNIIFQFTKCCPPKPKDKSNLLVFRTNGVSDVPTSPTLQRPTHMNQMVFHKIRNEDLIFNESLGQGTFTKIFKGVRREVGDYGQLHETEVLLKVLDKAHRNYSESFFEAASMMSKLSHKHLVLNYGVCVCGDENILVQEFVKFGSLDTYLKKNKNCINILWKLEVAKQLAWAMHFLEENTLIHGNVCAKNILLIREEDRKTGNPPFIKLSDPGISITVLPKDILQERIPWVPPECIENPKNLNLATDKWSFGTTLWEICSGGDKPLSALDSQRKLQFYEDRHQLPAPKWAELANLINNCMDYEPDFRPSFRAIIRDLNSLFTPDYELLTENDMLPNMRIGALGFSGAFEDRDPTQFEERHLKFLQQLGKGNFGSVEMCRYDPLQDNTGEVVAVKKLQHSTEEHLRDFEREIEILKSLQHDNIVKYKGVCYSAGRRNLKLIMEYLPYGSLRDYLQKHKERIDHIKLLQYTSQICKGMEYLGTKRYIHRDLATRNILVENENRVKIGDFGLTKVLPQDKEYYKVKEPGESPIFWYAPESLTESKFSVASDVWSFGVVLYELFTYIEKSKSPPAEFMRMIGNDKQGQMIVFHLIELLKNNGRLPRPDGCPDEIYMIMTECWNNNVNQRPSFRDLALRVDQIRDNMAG
- Procedure Summary: IC50 evaluation assay on JAK2 kinase inhibition (Caliper)
- Type: biochemical
- Condition Label: adenosine triphosphate at Km; 1 hour at 28° C.; average of two tests; read-out: IC50 (nM) inhibiting JAK 2 kinase
Parameter: IC50 (nM)

molecule="COc1cc(OCCCS(C)(=O)=O)ccc1-c1c(C)sc2cnc(Nc3cnn(CCO)c3)nc12 [Compound 24]" target_or_system="JAK2 kinase (Homo sapiens, UniProt O60674)" observed_value=0.94
molecule="Cc1sc2cnc(Nc3cnn(C)c3)nc2c1-c1cccc2c1OCO2 [Compound 30]" target_or_system="JAK2 kinase (Homo sapiens, UniProt O60674)" observed_value=1.9
molecule="COc1cc(OCCCN2CCC2)ccc1-c1c(C)sc2cnc(Nc3cnn(C)c3)nc12 [Compound 16]" target_or_system="JAK2 kinase (Homo sapiens, UniProt O60674)" observed_value=6.1
molecule="Cc1sc2cnc(Nc3cnn(C)c3)nc2c1-c1ccccc1N(C)C [Compound 41]" target_or_system="JAK2 kinase (Homo sapiens, UniProt O60674)" observed_value=36
molecule="Cc1sc2cnc(Nc3cnn(C)c3)nc2c1-c1ccccc1OC(F)F [Compound 10]" target_or_system="JAK2 kinase (Homo sapiens, UniProt O60674)" observed_value=1.1
molecule="COc1cc(O[C@@H]2CCOC2)ccc1-c1c(C)sc2cnc(Nc3cnn(C)c3)nc12 [Compound 12]" target_or_system="JAK2 kinase (Homo sapiens, UniProt O60674)" observed_value=1.8
molecule="c1cc2c(c(-c3cccc4cnc(Nc5cnn(C6CCNCC6)c5)nc34)c1)OCC2 [Compound 44]" target_or_system="JAK2 kinase (Homo sapiens, UniProt O60674)" observed_value=7.7
molecule="CN(c1ccccc1-c1csc2cnc(Nc3cnn(C)c3)nc12)S(C)(=O)=O [Compound 28]" target_or_system="JAK2 kinase (Homo sapiens, UniProt O60674)" observed_value=23
molecule="COc1cc(OCCCN2CCCC2)ccc1-c1c(C)sc2cnc(Nc3cnn(C)c3)nc12 [Compound 18]" target_or_system="JAK2 kinase (Homo sapiens, UniProt O60674)" observed_value=4.3
molecule="COc1cc(F)ccc1-c1c(C)sc2cnc(Nc3cnn(CCCN4CCCC4)c3)nc12 [Compound 27]" target_or_system="JAK2 kinase (Homo sapiens, UniProt O60674)" observed_value=2.3
molecule="COc1cc(S(C)(=O)=O)ccc1-c1c(C)sc2cnc(Nc3cnn(C)c3)nc12 [Compound 4]" target_or_system="JAK2 kinase (Homo sapiens, UniProt O60674)" observed_value=1.3
molecule="COc1cc(OCCCN2CCOCC2)ccc1-c1c(C)sc2cnc(Nc3cnn(C)c3)nc12 [Compound 17]" target_or_system="JAK2 kinase (Homo sapiens, UniProt O60674)" observed_value=2.3
molecule="COc1cc(S(C)(=O)=O)ccc1-c1cccc2cnc(Nc3cnn(C4CCNCC4)c3)nc12 [Compound 49]" target_or_system="JAK2 kinase (Homo sapiens, UniProt O60674)" observed_value=2.1
molecule="COc1ccccc1-c1cncc2cnc(Nc3cnn(C4CCNCC4)c3)nc12 [Compound 47]" target_or_system="JAK2 kinase (Homo sapiens, UniProt O60674)" observed_value=9.6
molecule="Cc1sc2cnc(Nc3cnn(C4CCOCC4)c3)nc2c1-c1cccc2c1OCC2 [Compound 39]" target_or_system="JAK2 kinase (Homo sapiens, UniProt O60674)" observed_value=1.6
molecule="Cc1sc2cnc(Nc3cnn(C4CCNCC4)c3)nc2c1-c1cccc2c1OCC2 [Compound 32]" target_or_system="JAK2 kinase (Homo sapiens, UniProt O60674)" observed_value=0.79
molecule="Cc1sc2cnc(Nc3cnn(C)c3)nc2c1-c1ccccc1OC(C)C [Compound 29]" target_or_system="JAK2 kinase (Homo sapiens, UniProt O60674)" observed_value=0.8
molecule="COc1ncccc1-c1c(C)sc2cnc(Nc3cnn(C)c3)nc12 [Compound 43]" target_or_system="JAK2 kinase (Homo sapiens, UniProt O60674)" observed_value=1.7

Where these numbers come from: patent US10494378B2
